- Test: protein stability index of a GFP-peptide fusion (yeast GPS) (PSI 1-4); higher = more stable; sorted into four equal gates, so the index is relative within each strain
- Measurement context: ubr1∆
Attribute measured: protein stability index
// no unit string in output, number only

[[record]]
sequence_data = "DTSAEKDQIQAGKWFDP [SIR4]"
attribute_measured = "protein stability index"
endpoint_value = 3.38

[[record]]
sequence_data = "SVLKDSDDKTRQLSPHT [PRE1]"
attribute_measured = "protein stability index"
endpoint_value = 2.52

[[record]]
sequence_data = "KVYAQLLESYKTLSLKS [RPN7]"
attribute_measured = "protein stability index"
endpoint_value = 1.32

[[record]]
sequence_data = "KALLFFNNEKETEKFAL [RPN12]"
attribute_measured = "protein stability index"
endpoint_value = 3.17

[[record]]
sequence_data = "TGKVSEFISIYSNSHQM [RET1]"
attribute_measured = "protein stability index"
endpoint_value = 2.72


Returns the measured protein stability index for the input sequence. Input: ETRPAQVILPMSPNHGT [FAS2]
2.36

Returns the measured protein stability index for the input sequence. Input: SPSEFVDVAIPCNNRGK [RPS0A]
1.54

###

- Test: protein stability index of a GFP-peptide fusion (yeast GPS) (PSI 1-4); higher = more stable; sorted into four equal gates, so the index is relative within each strain
- Measurement context: pdr5∆
I would appreciate it if you labelled entries fulfilled when protein stability index is 3 or higher, otherwise not fulfilled.

Reference set, count: 4
[[record]]
sequence_data = "PSDVNIDVMKSQIIPLM [SNU114]"
label = "not fulfilled"

[[record]]
sequence_data = "SLRRIRDEMSKAELPQW [MED8]"
label = "not fulfilled"

[[record]]
sequence_data = "RVIVAGTLDINPDDDYG [FAS1]"
label = "not fulfilled"

[[record]]
sequence_data = "PYLLPYILEAEAAAKEK [QCR7]"
label = "not fulfilled"


Reported protein stability index at or above 3? HKHALHGTAKALAAAKK [RPL29]
not fulfilled

Reported protein stability index at or above 3? DPVLDWRKSDRELTKNI [SIR4]
not fulfilled

Reported protein stability index at or above 3? YNTRKNAVTAAAANNNI [GAL11]
not fulfilled

###

Reported values of protein stability index for individual entries
- Test: protein stability index of a GFP-peptide fusion (yeast GPS) (PSI 1-4); higher = more stable; sorted into four equal gates, so the index is relative within each strain
- Measurement context: pdr5∆
// no unit string in output, number only

// known answers, use as guide
[[record]]
sequence_data = "YRPLTPSSEVYSPIEKE [RRP6]"
endpoint_value = 3.03

[[record]]
sequence_data = "AAPAGVAGGVAGGEAGE [RPP1A]"
endpoint_value = 1.8

[[record]]
sequence_data = "QRTAQDRVQQDSEDEDS [YML031W/NDC1]"
endpoint_value = 2.56


Returns the measured protein stability index for the input sequence. Input: KALLFFNNEKETEKFAL [RPN12]
3.03

Returns the measured protein stability index for the input sequence. Input: LLSENRSEKSTTNAQTK [SRP54]
2.84

Returns the measured protein stability index for the input sequence. Input: ETNGYDPFSIYGFSNKE [SNF5]
1.51

Returns the measured protein stability index for the input sequence. Input: LEDELYHTNPGHSQFTS [RPN4]
3.15

Returns the measured protein stability index for the input sequence. Input: ANLEDIIFEIEKPLVVP [RRP6]
2.79

Returns the measured protein stability index for the input sequence. Input: EFTKINTPLVGAAFKVI [YJL039C/NUP192]
1.91

###

- Test: protein stability index of a GFP-peptide fusion (yeast GPS) (PSI 1-4); higher = more stable; sorted into four equal gates, so the index is relative within each strain
- Measurement context: san1∆
Reported values of protein stability index for individual entries
// no unit string in output, number only

// known answers, use as guide
[[record]]
sequence_data = "ASYVNIPVIALTDLDSP [RPS0A]"
attribute_measured = "protein stability index"
endpoint_value = 1.61

[[record]]
sequence_data = "DDTKETVYISSIALLKM [RPN11]"
attribute_measured = "protein stability index"
endpoint_value = 2.71

[[record]]
sequence_data = "ETAKMIENMTKEKVSNG [FAS2]"
attribute_measured = "protein stability index"
endpoint_value = 3.57

[[record]]
sequence_data = "EDEDEDLFGDSNKSNST [SSN2]"
attribute_measured = "protein stability index"
endpoint_value = 2.86


Now look at this one.
Returns the measured protein stability index for the input sequence. Input: WAEHLSDEVKRRFYKNW [RPL3]
3.34

###

- Test: protein stability index of a GFP-peptide fusion (yeast GPS) (PSI 1-4); higher = more stable; sorted into four equal gates, so the index is relative within each strain
- Measurement context: doa10∆
Attribute measured: protein stability index
// no unit string in output, number only

// known answers, use as guide
[[record]]
sequence_data = "KDLKDDSIYTKPVKVAL [YJL039C/NUP192]"
endpoint_value = 2.81

[[record]]
sequence_data = "PNNETSVLSSKPGSKPE [SIR3]"
endpoint_value = 3.12

[[record]]
sequence_data = "NSISSQPASYHSVQETN [SSN2]"
endpoint_value = 2.22

[[record]]
sequence_data = "SRMRLIRQDVNLGRAVF [PRP8]"
endpoint_value = 2.06

[[record]]
sequence_data = "DRRKARKAYFTAPSSER [RPL26B]"
endpoint_value = 2.77


Returns the measured protein stability index for the input sequence. Input: TDYFLPKNYSLHGLRSF [YJL039C/NUP192]
1.96

Returns the measured protein stability index for the input sequence. Input: TRTIKQNNFHVLIDLLN [RGR1]
1.75

Returns the measured protein stability index for the input sequence. Input: AENMLEELRGQQTEHET [SMC4]
3.02

Returns the measured protein stability index for the input sequence. Input: KDLKHIIYYKFNKNLGK [PRP8]
1.14

Returns the measured protein stability index for the input sequence. Input: ENKTKKDNDKNLKFLKN [SRB4]
3.42

Returns the measured protein stability index for the input sequence. Input: CLEACSFILSSLEDPQV [YDL116W/NUP84]
2.68

###

- Test: protein stability index of a GFP-peptide fusion (yeast GPS) (PSI 1-4); higher = more stable; sorted into four equal gates, so the index is relative within each strain
- Measurement context: doa10∆
I would appreciate it if you labelled entries Fulfilled when protein stability index is 3 or higher, otherwise Not fulfilled.

Reference set, count: 3
[[record]]
sequence_data = "QHIKVFKLDKDTSNWEL [YGL100W/SEH1]"
label = "Fulfilled"

[[record]]
sequence_data = "NSSRFSDPMLQRTATLC [YCS4]"
label = "Not fulfilled"

[[record]]
sequence_data = "TLIDLVKHSPGAIKPFT [ECM29]"
label = "Not fulfilled"


Reported protein stability index at or above 3? SVTETESISQTPISNEQ [SRP68]
Not fulfilled

Reported protein stability index at or above 3? TPDTKNFFHAKKKDPVN [SNF12]
Fulfilled

Reported protein stability index at or above 3? SGGSRNTSESLLVDIQK [SMC2]
Not fulfilled

Reported protein stability index at or above 3? SNDSQSHFDYNTLEFII [YCG1]
Not fulfilled

Reported protein stability index at or above 3? VSMYQNSSTSSTSNTPS [YDL088C/ASM4]
Not fulfilled

Reported protein stability index at or above 3? EREQPQENKNIDDENIT [SRB4]
Fulfilled

Reported protein stability index at or above 3? HTSSSDGNNEIFTCQIM [RPN4]
Not fulfilled

Reported protein stability index at or above 3? ICEDPETAKKITFHPKI [SMC2]
Not fulfilled

###

Reported values of protein stability index for individual entries
- Test: protein stability index of a GFP-peptide fusion (yeast GPS) (PSI 1-4); higher = more stable; sorted into four equal gates, so the index is relative within each strain
- Measurement context: san1∆
// no unit string in output, number only

// known answers, use as guide
[[record]]
sequence_data = "APGTEAGIVPVSANTPK [SWI1]"
attribute_measured = "protein stability index"
endpoint_value = 3.08

[[record]]
sequence_data = "LGLEYIIRLLPINLENN [SRB8]"
attribute_measured = "protein stability index"
endpoint_value = 1.24


Returns the measured protein stability index for the input sequence. Input: SSPSHIELVVTEKEEAV [RPL17A]
2.3

Returns the measured protein stability index for the input sequence. Input: KISNSEFFNPEIFHLLQ [SIN4]
1.61

Returns the measured protein stability index for the input sequence. Input: LMEASDAFRVHICGICG [RPB2]
2.23

Returns the measured protein stability index for the input sequence. Input: AAAQAQSKIDLTKKKNE [SEM1]
2.94

Returns the measured protein stability index for the input sequence. Input: AMICEAKGLIENIFEGE [YJR042W/NUP85]
2.5

Returns the measured protein stability index for the input sequence. Input: LERTDLKSKVIDSPELL [RPN7]
3.26

Returns the measured protein stability index for the input sequence. Input: LPYERHMISQEGIKETQ [SWI1]
1.3

Returns the measured protein stability index for the input sequence. Input: QSQQAQPSDVMFNDLNS [MED2]
3.44

Returns the measured protein stability index for the input sequence. Input: ENISLAEFILKNRSTIF [BRR2]
1.67

Returns the measured protein stability index for the input sequence. Input: VKGETRIQNRVKLGLNS [PRP8]
2.23

Returns the measured protein stability index for the input sequence. Input: QIPTVSSPLGFEETKLS [SIR4]
2.63

Returns the measured protein stability index for the input sequence. Input: HLHDAVFVNTGLQNVRK [SWP82]
2.77

Returns the measured protein stability index for the input sequence. Input: NSISDFLGEQVNEPTKN [RPN1]
3.34

Returns the measured protein stability index for the input sequence. Input: VTKDLKLRREDEIIVYA [REC8]
3.18

Returns the measured protein stability index for the input sequence. Input: YTEQFQHYKNNSISSQP [SSN2]
3.09

Returns the measured protein stability index for the input sequence. Input: TPDPSELAAKEEPAKEE [FAS2]
2.69

Returns the measured protein stability index for the input sequence. Input: IPIAIVLKACGILSDLE [RET1]
1.36

Returns the measured protein stability index for the input sequence. Input: GAIAYNQFKRIDTLLYL [RET1]
1.48

Returns the measured protein stability index for the input sequence. Input: SNGIFYGPSFTKRESLN [SIR2]
2.65

Returns the measured protein stability index for the input sequence. Input: TVQENELLKSSLQKAGS [AAR2]
3.01

Returns the measured protein stability index for the input sequence. Input: LKSKVIDSPELLSLIST [RPN7]
2.4

Returns the measured protein stability index for the input sequence. Input: ILNHIGQLTGIYRYKYK [PRP8]
1.26
